Target: streptavidin coated beads (Streptomyces avidinii)
Sequence (P22629 25-183): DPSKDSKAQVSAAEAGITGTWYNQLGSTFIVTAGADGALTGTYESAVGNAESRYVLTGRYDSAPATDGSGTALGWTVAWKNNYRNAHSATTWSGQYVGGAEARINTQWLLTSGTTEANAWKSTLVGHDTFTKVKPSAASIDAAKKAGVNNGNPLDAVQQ
pKd: −log10 of the molar value.
quantity name: pKd

Query block: Please look up its pKd: O=C(CCCCCNC(=O)CCCC[C@@H]1SC[C@@H]2NC(=O)N[C@@H]21)NCCCCCNC(=S)Nc1ccc2c(c1)C(=O)OC21c2ccc(O)cc2Oc2cc(O)ccc21
Result block: ~9.30
